# Tested on: Mus musculus
# assay comment: Tested for biodistribution of radioactivity after 24 hr of intravenous injection in mice kidneys
# Assay type: ADME, organism-based, Kidney
# particulars: in vivo
experimental endpoint: Dose/organ (%)

CN[C@@H](CSC1CC(=O)N(CCOC(=O)CNC(=O)c2cccc(I)c2)C1=O)C(=O)O (stereo not given in full)
0.02
N[C@@H](CSC1CC(=O)N(CCOC(=O)CNC(=O)c2cccc(I)c2)C1=O)C(=O)O (stereo not given in full)
2.08
CCc1ccc(O)c(I)c1
0.04
CN[C@@H](CCCCN)C(=O)NC(=O)c1cccc(I)c1
0.02
NCCCCC(N)C(=O)NC(=O)c1cccc(I)c1 (stereo not given)
4.23
